Would you mind telling me the reported photoluminescence quantum yield of each entry?
# measurement.notes: photoluminescence quantum yield (fraction); solvent given as SMILES
# run.conditions: in CN(C)C=O
Numbers only.

Worked examples, 3 compounds total:
CC1=CC(C)=[N+]2C1=Cc1c3ccccc3c(C#Cc3ccccc3)n1[B-]2(F)F : 0.6
CCC1=C(C)C2=C(c3cc(C(=O)Cl)cc(C4=C5C(C)=C(CC)C(C)=[N+]5[B-](F)(F)n5c(C)c(CC)c(C)c54)c3)c3c(C)c(CC)c(C)n3[B-](F)(F)[N+]2=C1C : 0.61
CC(C)(C)NS(=O)(=O)c1ccc2c(c1)C(=O)/C(=C1\Sc3ccc(S(=O)(=O)NC(C)(C)C)cc3C1=O)S2 : 0.352

Below: the item to evaluate.
Item: `COc1ccc(-n2nc(C(=O)N3CCCC3)c(N3CCCC3)n2)cc1` | photoluminescence quantum yield: 0.77

###

# measurement.notes: photoluminescence quantum yield (fraction); solvent given as SMILES
# run.conditions: in C1CCOC1
readout.name: photoluminescence quantum yield
Numbers only.

Worked cases, answers included:
Cc1cc(C)c(B(c2c(C)cc(C)cc2C)c2cc3cc(N(C)C)c4ccccc4c3c3c2ccc2ccccc23)c(C)c1 : 0.21
C(=C1c2ccccc2CCc2ccccc21)c1ccc(-c2cc(-c3ccc(C=C4c5ccccc5CCc5ccccc54)cc3)cc(-c3ccc(C=C4c5ccccc5CCc5ccccc54)cc3)c2)cc1 : 0.0045

Count: 7. Required value per item: photoluminescence quantum yield.
1. CN(C)c1c2ccccc2cc2ccccc12
2. CC(C)(C)c1ccc(C2=C(Br)C3=C(c4ccccc4)c4c(Br)c(-c5ccc(C(C)(C)C)cc5)c(-c5ccc(C(C)(C)C)cc5)n4[B-](F)(F)[N+]3=C2c2ccc(C(C)(C)C)cc2)cc1
3. Cc1cc(C)c(B(c2c(C)cc(C)cc2C)c2cc3ccc4ccccc4c3c3c2ccc2ccccc23)c(C)c1
4. N#Cc1ccc(-c2ccc3c(c2)c2cc(-c4ccc(C#N)cc4)ccc2c2c3nc(-c3ccc(-c4ccc(N(c5ccccc5)c5ccccc5)cc4)cc3)n2-c2ccccc2)cc1
5. CC(C)(C)c1ccc(C2=Cc3cc4c(cc3P2(=O)c2ccccc2)C=C(c2ccc(C(C)(C)C)cc2)P4(=O)c2ccccc2)cc1 (centres undefined)
6. F[B-]1(F)n2c(c3ccccc3c2-c2ccccc2)C=C2c3ccccc3C(c3ccccc3)=[N+]21
7. CCOC(=O)c1ccc(C2=C(c3ccccc3)c3oc4ccccc4[n+]3[B-](F)(F)O2)cc1

a:
1. 0.01
2. 0.11
3. 0.73
4. 0.54
5. 0.44
6. 0.57
7. 0.011

Hey, can you go through the list below and give me photoluminescence quantum yield for every item?
1. Cc1ccc(-c2ccc3ccc4cc(C(C)(C)C)cc5ccc2c3c45)cc1
2. CCC1(CC)c2ccccc2-c2c1c1c(c3c2C(CC)(CC)c2cc(/C=C/c4cccs4)ccc2-3)C(CC)(CC)c2ccccc2-1
3. C[Si](C)(C)C#CC1=CC2=c3cc(C#C[Si](C)(C)C)c4nc(C(F)(F)C(F)(F)C(F)(F)F)nc5c(C#C[Si](C)(C)C)cc(c3c54)C3=CC(C#C[Si](C)(C)C)=C4N=C(C(F)(F)C(F)(F)C(F)(F)F)N=C1C4C32 (centres undefined)
4. COc1cc(/C=C/c2nc3ccccc3s2)c(OC)cc1/C=C/c1nc(C)nc(/C=C/c2cc(OC)c(/C=C/c3nc4ccccc4s3)cc2OC)n1

a:
[0.41, 0.23, 0.45, 0.54]

Please fill in: photoluminescence quantum yield reported for `CCC1(CC)c2cc(B(c3c(C)cc(C)cc3C)c3c(C)cc(C)cc3C)ccc2-c2c1c1c(c3c2C(CC)(CC)c2cc(N(c4ccccc4)c4ccccc4)ccc2-3)C(CC)(CC)c2cc(B(c3c(C)cc(C)cc3C)c3c(C)cc(C)cc3C)ccc2-1` = 0.2

###

Could you please report measured photoluminescence quantum yield for the items listed next?
# measurement.notes: photoluminescence quantum yield (fraction); solvent given as SMILES
# run.conditions: in ClCCl

// worked examples, photoluminescence quantum yield included
Cc1ccc(-c2ccc3ccc4cc(C(C)(C)C)cc5ccc2c3c45)cc1 : 0.38
CCN(CC)c1ccc2cc(-c3ccc(-c4ccc(-c5cc6ccc(N(CC)CC)cc6oc5=O)cc4)cc3)c(=O)oc2c1 : 0.75
c1ccc(N(c2ccccc2)c2ccc(-c3ccc(-c4nc(-c5ccccn5)n(-c5ccccc5)n4)cc3)cc2)cc1 : 0.392
COc1ccc(-c2csc(/C(C#N)=C/c3ccncc3)n2)cc1 : 0.129
Fc1c(F)c(F)c([B-]2(c3c(F)c(F)c(F)c(F)c3F)Oc3c(ccc4c5c(ccc34)C=[N+](c3ccccc3)[B-](c3c(F)c(F)c(F)c(F)c3F)(c3c(F)c(F)c(F)c(F)c3F)O5)C=[N+]2c2ccccc2)c(F)c1F : 0.8
COc1ccc(Oc2ccc3c4c(cccc24)C(=O)N(c2c(C(C)C)cccc2C(C)C)C3=O)cc1 : 0.002

Kindly give each listed record's photoluminescence quantum yield.
1. CCCCC1=Cc2c3ccc4cccc5ccc(c6cc(-c7ccccc7)n(c26)P1(=O)c1ccccc1)c3c45 (stereo not drawn)
2. FC(F)(F)c1ccc(C#Cc2ncc(-c3ccccc3)o2)cc1

a:
0.57
0.24

###

# measurement.notes: photoluminescence quantum yield (fraction); solvent given as SMILES
# run.conditions: in Cc1ccccc1
Please provide measured photoluminescence quantum yield for the entries that follow.
One number for each entry.

Sample records with photoluminescence quantum yield:
COc1ccc(C2=CC(c3ccc4cc(N(C)C)ccc4c3)=[O+][B-](F)(F)O2)cc1 : 0.95
CN(C)c1cc(C#N)c(N(C)C)c(C#N)c1 : 0.55
CCn1c2ccccc2c2cc(C#Cc3cc(C#Cc4ccc5c(c4)c4ccccc4n5CC)nc(S(C)(=O)=O)n3)ccc21 : 0.81
Brc1ccc(-c2nc(-c3ccc(C#Cc4ccc(-n5c6ccccc6c6ccccc65)cc4)cc3)nc(-c3ccc(C#Cc4ccc(-n5c6ccccc6c6ccccc65)cc4)cc3)n2)cc1 : 0.96
COCCC1=Cc2nc1ccc1[nH]c(cc1CCOC)c1nc(c(O)cc3[nH]c2cc3CCOC)C(CCOC)=C1 : 0.18

// for each compound below, give its photoluminescence quantum yield
1. c1ccc(-c2nc(-c3ccccc3)nc(-c3ccc(-n4c5ccccc5c5cc(-n6c7ccccc7c7ccccc76)ccc54)cc3)n2)cc1
2. CCCCOC(=O)c1cc(Cl)c2c3c(Cl)cc4c5c(cc(Cl)c(c6c(Oc7ccc(OC)cc7)cc(C(=O)OCCCC)c1c26)c53)C(=O)N(c1c(C(C)C)cccc1C(C)C)C4=O
3. COc1ccc(-c2c3ccc([nH]3)c3nc(c(-c4ccc([N+](=O)[O-])cc4)c4ccc([nH]4)c4ccc([nH]4)c(-c4ccc(OC)cc4)c4ccc2o4)C=C3)cc1
4. COc1ccc(C#Cc2nc3ccccc3nc2-c2cn(C)c3ccccc23)cc1
5. Cc1cc(-n2c3ccccc3c3cc4c(cc32)C2c3ccccc3C4c3ccccc32)ccc1-c1nc(-c2ccccc2)nc(-c2ccccc2)n1
6. CC(C)(C)c1ccc2c(c1)c1cc(C(C)(C)C)ccc1n2-c1cc(C(=O)c2cccnc2)cc(-n2c3ccc(C(C)(C)C)cc3c3cc(C(C)(C)C)ccc32)c1

a:
1. 0.72
2. 0.12
3. 0.075
4. 0.3
5. 0.8
6. 0.07

List photoluminescence quantum yield for every entry below, keeping the order given.
1. COc1ccc(-n2c3ccccc3c3cc(C=C(C#N)C#N)ccc32)cc1
2. Fc1c(F)c(F)c([B-]2(c3c(F)c(F)c(F)c(F)c3F)Oc3c(ccc4c5c(ccc34)C=[N+](c3ccccc3)[B-](c3c(F)c(F)c(F)c(F)c3F)(c3c(F)c(F)c(F)c(F)c3F)O5)C=[N+]2c2ccccc2)c(F)c1F
3. Cc1ccc(C2=C3C=CC(c4ccccc4)=[N+]3[B-](F)(F)n3c(Cl)ccc32)cc1
4. CC1(C)c2ccccc2N(c2ccc(-c3nc(-c4ccccc4)cc(-c4ccccc4)n3)cc2)c2ccccc21

a:
1. 0.15
2. 0.81
3. 0.13
4. 0.339

###

# measurement.notes: photoluminescence quantum yield (fraction); solvent given as SMILES
# run.conditions: in ClC(Cl)Cl
Exam item: assign Met to entries whose photoluminescence quantum yield is below 0.7 and Not met to entries at or above 0.7. Note that a value of exactly 0.7 receives Not met.

A selection of reference data follows.
F[B-]1(F)OC(c2ccc(N3CCCCC3)cc2)=Cc2cccc[n+]21 : Met
CN(C)c1ccc2nc(-c3ccc(C(=O)OC(C)(C)C)cc3)sc2c1 : Not met
COc1ccc(-n2c3ccccc3c3cc(C=C(C#N)C#N)ccc32)cc1 : Met
N#Cc1nc(N(Cc2ccc(F)cc2)Cc2ccc(F)cc2)c(C#N)nc1N(Cc1ccc(F)cc1)Cc1ccc(F)cc1 : Not met
CCCCCCC(CCCCCC)N1C(=O)c2cccc3c(-c4ccc(OC)c5cccc(C)c45)ccc(c23)C1=O : Met

q: Does `F[B-]1(F)OC(c2ccccc2)=Nc2sc(-c3ccccc3)n[n+]21` have photoluminescence quantum yield strictly under 0.7?
a: Met

q: Hello, I'm reviewing records and need to know if photoluminescence quantum yield of `CCC1=C(C)C(=O)n2c1cc1c(C)c(CC(=O)OC)c(C)n1c2=O` is below 0.7. Could you check?
a: Not met
